Tested on: RXF 393 renal
Test: NCI tumour cell line growth inhibition, 48 h
# maps each entry to its TGI

Some compounds with recorded TGI:
[
  {
    "Compound": "N#C/C(C(=S)Nc1ccccc1)=C(/N)N1CCCC1",
    "Assayed system": "RXF 393 renal",
    "TGI": "> 100 µM"
  },
  {
    "Compound": "CN(C)C1(N(C)C)Oc2c(c(=O)n(C)c(=O)n2C)C(c2ccccc2Br)C1(F)F (stereo not given)",
    "Assayed system": "RXF 393 renal",
    "TGI": "> 100 µM"
  },
  {
    "Compound": "CNC(=O)C1CCCN1C(=O)C(Cc1cnc[nH]1)NC(=O)C1CCC(=O)N1 (stereo not given)",
    "Assayed system": "RXF 393 renal",
    "TGI": "> 100 µM"
  },
  {
    "Compound": "CC(C)n1c(=O)[nH]n(-c2ccccc2)c1=O",
    "Assayed system": "RXF 393 renal",
    "TGI": "> 100 µM"
  }
]

--- query ---
Task item: Return the recorded TGI value; entry: `CCOC(=O)c1[nH]cc(C)c1-c1c[nH]c2ccccc12`
Reply: > 80 µM

The reported measurements were obtained from PubChem BioAssay (NCI).
